system.tested: dopaminergic receptors D2 (Homo sapiens, UniProt P14416)
Sequence (P14416 whole entry): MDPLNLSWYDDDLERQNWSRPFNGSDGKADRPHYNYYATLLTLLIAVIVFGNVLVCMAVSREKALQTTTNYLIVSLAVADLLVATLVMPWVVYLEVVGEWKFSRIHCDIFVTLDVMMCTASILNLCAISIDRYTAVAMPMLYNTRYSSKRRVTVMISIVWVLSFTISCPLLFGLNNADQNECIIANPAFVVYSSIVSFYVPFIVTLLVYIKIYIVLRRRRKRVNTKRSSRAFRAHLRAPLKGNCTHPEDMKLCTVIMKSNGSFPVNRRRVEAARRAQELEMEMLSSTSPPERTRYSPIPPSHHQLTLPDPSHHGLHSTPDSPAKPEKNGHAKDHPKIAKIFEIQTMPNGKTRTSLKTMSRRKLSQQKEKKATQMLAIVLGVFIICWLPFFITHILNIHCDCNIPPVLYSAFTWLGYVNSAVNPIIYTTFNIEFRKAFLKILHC
experiment.notes: Radioligand binding assay, dopaminergic D2 receptors
test.context: binding assay, test compound 1×10^−6 M
readout.type: D2 [%] (%)
Supply the numeric figure in %, leaving out any unit text.

Use these answered entries as a reference point.
molecule=O=S(=O)(NC1CCN(CCOc2nsc3ccccc23)CC1)c1ccc2ccccc2c1 measured_value=49
molecule="O=S(=O)(NC1CCN(CCOc2cccc3ccccc23)C1)c1cccc(O)c1 (stereo not shown)" measured_value=74
molecule="Cc1cccc(S(=O)(=O)NC2CCN(CCOc3cccc4c3OCCO4)C2)c1 (stereo not shown)" measured_value=29

Would you kindly share the measured D2 [%] for Cc1cccc(S(=O)(=O)NC2CCN(CCOc3cccc4[nH]ccc34)CC2)c1 ?
34

----------
system.tested: 5-HT2A receptor (Homo sapiens)
Construct: purchased PerkinElmer
experiment.notes: Radioligand binding assay, serotoninergic 5-HT2A receptors
test.context: binding assay result in %, Table 5a
Text: The specific ligand binding to the receptors is defined as the difference between the total binding and the non-specific binding determined in the presence of the excess of unlabelled ligand. The results are expressed as a percent of control specific binding ((measured specific binding/control specific binding)×100) and as a percent inhibition of control specific binding (100−((measured specific binding/control specific binding)×100)) obtained in the presence of the test compounds. […]
readout.type: inhibition at 1 µM (%)
Supply the numeric figure in %, leaving out any unit text.

molecule="O=S(=O)(NC1CCN(CCCc2noc3cc(F)ccc23)C1)c1ccc2ccccc2c1 (stereo not drawn) [Compound 21]" system_tested="5-HT2A receptor (Homo sapiens)" measured_value=100
molecule="O=S(=O)(NCC1CCN(CCCc2noc3cc(F)ccc23)C1)c1csc2ccccc12 (stereo not drawn) [Compound 261]" system_tested="5-HT2A receptor (Homo sapiens)" measured_value=101

Now for another entry.
Would you kindly share the measured inhibition at 1 µM for O=S(=O)(NC1CCN(CCOc2cccc3ccccc23)C1)c1ccc2ccccc2c1 (stereo not drawn) [Compound 116] ?
96

----------
system.tested: 5-HT2A receptor (Homo sapiens, UniProt P28223)
Construct: purchased PerkinElmer
Sequence (P28223 whole entry): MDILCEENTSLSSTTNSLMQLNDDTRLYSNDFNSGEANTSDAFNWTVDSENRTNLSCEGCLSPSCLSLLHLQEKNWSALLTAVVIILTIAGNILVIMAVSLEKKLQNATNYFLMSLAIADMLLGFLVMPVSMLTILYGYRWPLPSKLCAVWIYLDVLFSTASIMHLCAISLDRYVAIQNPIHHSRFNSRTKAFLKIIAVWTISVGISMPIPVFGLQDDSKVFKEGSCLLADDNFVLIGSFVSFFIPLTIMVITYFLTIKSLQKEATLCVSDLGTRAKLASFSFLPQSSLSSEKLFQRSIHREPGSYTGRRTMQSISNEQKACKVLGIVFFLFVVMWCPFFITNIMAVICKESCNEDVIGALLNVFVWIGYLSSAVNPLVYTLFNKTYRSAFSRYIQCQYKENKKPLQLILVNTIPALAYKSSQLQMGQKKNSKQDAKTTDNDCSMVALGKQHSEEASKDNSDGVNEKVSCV
experiment.notes: Radioligand binding assay, serotoninergic 5-HT2A receptors
test.context: binding assay result in %, Table 5a
Would you please tag the item rule met when its inhibition at 1 µM is 90% or above, and rule not met when it is below?

Decide: inhibition at 1 µM of O=S(=O)(NCC1CCN(CCCc2noc3cc(F)ccc23)C1)c1ccc(F)c(Cl)c1 (centres unmarked) >= 90%?
rule met

Check O=S(=O)(NCC1CN(CCCc2noc3cc(F)ccc23)C1)c1cccc(Cl)c1 too.
rule not met

Check O=S(=O)(NC1CCN(CCOc2cccc3[nH]ccc23)C1)c1ccccc1 (centres unmarked) too.
rule not met

Check O=S(=O)(NCC1CN(CCOc2cccc3ccccc23)C1)c1csc2ccccc12 too.
rule met

Check CC(C)(C)c1ccc(S(=O)(=O)NC2CCN(CCCc3noc4cc(F)ccc34)CC2)cc1 too.
rule met

Check O=S(=O)(N[C@@H]1CCN(CCCc2noc3cc(F)ccc23)C1)c1ccc2cc(Cl)ccc2c1 too.
rule met

Check O=S(=O)(NCC1CN(CCOc2cccc3c2OCCO3)C1)c1cc2ccccc2o1 too.
rule not met

Check Cc1cccc(S(=O)(=O)NCC2CN(CCCc3noc4cc(F)ccc34)C2)c1 too.
rule not met

Check O=S(=O)(NCC1CCN(CCOc2cccc3ccccc23)C1)c1ccc2ccccc2c1 (centres unmarked) too.
rule not met

Check O=S(=O)(NC1CCN(CCOc2nsc3ccccc23)C1)c1ccc2ccccc2c1 (centres unmarked) too.
rule met

Check O=S(=O)(NC1CCN(CCCc2noc3cc(F)ccc23)C1)c1cccc(O)c1 (centres unmarked) too.
rule not met

Check CC1(C)Cc2cccc(OCCN3CCC(NS(=O)(=O)c4cccc(O)c4)C3)c2O1 (centres unmarked) too.
rule met
